Assay: Selectivity index, ratio of IC50 for cytotoxicity against human HEK293T cells to IC50 for cytotoxicity against human SKOV3 cells after 48 hrs by MTT assay
Format: toxicity, cell-based
Settings: HEK293T cells versus SKOV3 cells, read-out: Ratio IC50
parameter: selectivity ratio at 48 h

Record COc1cc2c3c(c4cc(OC)c(OC)cc4c2cc1OC)C(c1cccc(C(F)(F)F)c1)C1=C(CCCC1=O)N3 (stereo unspecified) , field selectivity ratio at 48 h: 77

----------
Test system: SK-OV-3
Experiment: Cytotoxicity against human SKOV3 cells after 48 hrs by MTT assay
Type: functional, cell-based
Settings: SK-OV-3, 48 h
parameter: IC50 (µM)
Numeric answer only, unit µM assumed.

Record COc1cc2c3c(c4cc(OC)c(OC)cc4c2cc1OC)C(c1cc(OC)c(OC)c(OC)c1)C1=C(CC(C)(C)CC1=O)N3 (stereo not drawn) , field IC50: 10.8

Record COc1cc2c3c(c4cc(OC)c(OC)cc4c2cc1OC)C(c1cccc2ccccc12)C1=C(CCCC1=O)N3 (stereo not drawn) , field IC50: 2.67

Record COc1cc2c3c(c4cc(OC)c(OC)cc4c2cc1OC)C(c1ccc(Cl)cc1)C1=C(CC(C)(C)CC1=O)N3 (stereo not drawn) , field IC50: 15.9

Record COc1cc2c3c(c4cc(OC)c(OC)cc4c2cc1OC)C(c1cccc(C(F)(F)F)c1)C1=C(CCCC1=O)N3 (stereo not drawn) , field IC50: 0.24

Record COc1cc2c3c(c4cc(OC)c(OC)cc4c2cc1OC)C(c1cccs1)C1=C(CCCC1=O)N3 (stereo not drawn) , field IC50: 2.35

Record COc1cc2c3c(c4cc(OC)c(OC)cc4c2cc1OC)C(c1ccc(C(F)(F)F)cc1)C1=C(CC(C)(C)CC1=O)N3 (stereo not drawn) , field IC50: 18.6

Record COc1cc2c3c(c4cc(OC)c(OC)cc4c2cc1OC)C(c1ccc2c(c1)OCO2)C1=C(CC(C)(C)CC1=O)N3 (stereo not drawn) , field IC50: 4.66

Record COc1cc2c3c(c4cc(OC)c(OC)cc4c2cc1OC)C(c1cc(OC)c(O)c(OC)c1)C1=C(CC(C)(C)CC1=O)N3 (stereo not drawn) , field IC50: 6.5

Record COc1ccc(C2C3=C(CC(C)(C)CC3=O)Nc3c2c2cc(OC)c(OC)cc2c2cc(OC)c(OC)cc32)cc1OC (stereo not drawn) , field IC50: 13.7

Record COc1ccc(C2C3=C(CCCC3=O)Nc3c2c2cc(OC)c(OC)cc2c2cc(OC)c(OC)cc32)cc1 (stereo not drawn) , field IC50: 0.61

Record COc1cc2c3c(c4cc(OC)c(OC)cc4c2cc1OC)C(c1ccc(Br)cc1)C1=C(CC(C)(C)CC1=O)N3 (stereo not drawn) , field IC50: 15.5

Record COc1cc2c3c(c4cc(OC)c(OC)cc4c2cc1OC)C(c1sccc1C)C1=C(CC(C)(C)CC1=O)N3 (stereo not drawn) , field IC50: 2.89

Record COc1cc(C2C3=C(CC(C)(C)CC3=O)Nc3c2c2cc(OC)c(OC)cc2c2cc(OC)c(OC)cc32)ccc1O (stereo not drawn) , field IC50: 13.6

Record COc1cc2c3c(c4cc(OC)c(OC)cc4c2cc1OC)C(c1ccc(C(C)C)cc1)C1=C(CC(C)(C)CC1=O)N3 (stereo not drawn) , field IC50: 11.5

Record COc1cc2c3c(c4cc(OC)c(OC)cc4c2cc1OC)C(c1ccc(C(C)C)cc1)C1=C(CCCC1=O)N3 (stereo not drawn) , field IC50: 4.81

Record COc1cc2c3c(c4cc(OC)c(OC)cc4c2cc1OC)C(c1cccs1)C1=C(CC(C)(C)CC1=O)N3 (stereo not drawn) , field IC50: 1.6

Record COc1cc2c3c(c4cc(OC)c(OC)cc4c2cc1OC)C(c1ccc(C)cc1)C1=C(CCCC1=O)N3 (stereo not drawn) , field IC50: 1.62

Record COc1ccc(C2C3=C(CCCC3=O)Nc3c2c2cc(OC)c(OC)cc2c2cc(OC)c(OC)cc32)cc1OC (stereo not drawn) , field IC50: 11.5

----------
Test system: HEK-293T
Test: Cytotoxicity against human HEK293T cells after 48 hrs by MTT assay
Format: cell-based
Field: label. Allowed values: yes (IC50 < 40 µM) or no (IC50 >= 40 µM).

Exercise: Bench note: check whether COc1cc2c3c(c4cc(OC)c(OC)cc4c2cc1OC)C(c1ccc(C(C)C)cc1)C1=C(CCCC1=O)N3 (stereo not drawn) shows IC50 below 40 µM
Solution: no

Exercise: Bench note: check whether COc1cc2c3c(c4cc(OC)c(OC)cc4c2cc1OC)C(c1cccs1)C1=C(CCCC1=O)N3 (stereo not drawn) shows IC50 below 40 µM
Solution: yes

Exercise: Bench note: check whether COc1cc2c3c(c4cc(OC)c(OC)cc4c2cc1OC)C(c1cccc(C(F)(F)F)c1)C1=C(CCCC1=O)N3 (stereo not drawn) shows IC50 below 40 µM
Solution: yes

Exercise: Bench note: check whether COc1cc2c3c(c4cc(OC)c(OC)cc4c2cc1OC)C(c1ccc(C(C)C)cc1)C1=C(CC(C)(C)CC1=O)N3 (stereo not drawn) shows IC50 below 40 µM
Solution: yes

Exercise: Bench note: check whether COc1cc(C2C3=C(CC(C)(C)CC3=O)Nc3c2c2cc(OC)c(OC)cc2c2cc(OC)c(OC)cc32)ccc1O (stereo not drawn) shows IC50 below 40 µM
Solution: no

Exercise: Bench note: check whether COc1cc2c3c(c4cc(OC)c(OC)cc4c2cc1OC)C(c1ccc(C(F)(F)F)cc1)C1=C(CC(C)(C)CC1=O)N3 (stereo not drawn) shows IC50 below 40 µM
Solution: yes

Exercise: Bench note: check whether COc1cc2c3c(c4cc(OC)c(OC)cc4c2cc1OC)C(c1ccc2c(c1)OCO2)C1=C(CC(C)(C)CC1=O)N3 (stereo not drawn) shows IC50 below 40 µM
Solution: yes

Exercise: Bench note: check whether COc1cc2c3c(c4cc(OC)c(OC)cc4c2cc1OC)C(c1ccc(Br)cc1)C1=C(CC(C)(C)CC1=O)N3 (stereo not drawn) shows IC50 below 40 µM
Solution: yes

----------
System: PC-3
Assay: Cytotoxicity against human PC3 cells after 48 hrs by MTT assay
Type: functional, cell-based
Details: PC-3, 48 h
I'd be grateful if you could share measured pIC50 for these entries.
pIC50 is defined as minus the log10 of a concentration measured in mol/L.

Record COc1cc2c3c(c4cc(OC)c(OC)cc4c2cc1OC)C(c1ccc2c(c1)OCO2)C1=C(CC(C)(C)CC1=O)N3 (stereo not drawn) , field pIC50: 5.11

Record COc1cc2c3c(c4cc(OC)c(OC)cc4c2cc1OC)C(c1sccc1C)C1=C(CC(C)(C)CC1=O)N3 (stereo not drawn) , field pIC50: 4.67

Record COc1ccc(C2C3=C(CCCC3=O)Nc3c2c2cc(OC)c(OC)cc2c2cc(OC)c(OC)cc32)cc1 (stereo not drawn) , field pIC50: 5.24

Record COc1cc2c3c(c4cc(OC)c(OC)cc4c2cc1OC)C(c1ccc(C(C)C)cc1)C1=C(CCCC1=O)N3 (stereo not drawn) , field pIC50: 5.25

Record COc1cc2c3c(c4cc(OC)c(OC)cc4c2cc1OC)C(c1ccc(Br)cc1)C1=C(CC(C)(C)CC1=O)N3 (stereo not drawn) , field pIC50: 4.91

Record COc1cc2c3c(c4cc(OC)c(OC)cc4c2cc1OC)C(c1cccs1)C1=C(CCCC1=O)N3 (stereo not drawn) , field pIC50: 5.23

Record COc1cc(C2C3=C(CC(C)(C)CC3=O)Nc3c2c2cc(OC)c(OC)cc2c2cc(OC)c(OC)cc32)ccc1O (stereo not drawn) , field pIC50: 4.62

----------
I'd be grateful if you could share measured IC50 for these entries.
System: HEK-293T
Assay: Cytotoxicity against human HEK293T cells after 48 hrs by MTT assay
Format: cell-based
Numeric answer only, unit µM assumed.

Record COc1cc2c3c(c4cc(OC)c(OC)cc4c2cc1OC)C(c1cc(OC)c(OC)c(OC)c1)C1=C(CC(C)(C)CC1=O)N3 (stereo not given) , field IC50: 29.2

Record COc1cc2c3c(c4cc(OC)c(OC)cc4c2cc1OC)C(c1cccs1)C1=C(CC(C)(C)CC1=O)N3 (stereo not given) , field IC50: 18.9

Record COc1cc2c3c(c4cc(OC)c(OC)cc4c2cc1OC)C(c1cccc2ccccc12)C1=C(CCCC1=O)N3 (stereo not given) , field IC50: 14.4

Record COc1ccc(C2C3=C(CCCC3=O)Nc3c2c2cc(OC)c(OC)cc2c2cc(OC)c(OC)cc32)cc1 (stereo not given) , field IC50: 28.3

Record COc1ccc(C2C3=C(CC(C)(C)CC3=O)Nc3c2c2cc(OC)c(OC)cc2c2cc(OC)c(OC)cc32)cc1OC (stereo not given) , field IC50: 43.5

Record COc1cc2c3c(c4cc(OC)c(OC)cc4c2cc1OC)C(c1sccc1C)C1=C(CC(C)(C)CC1=O)N3 (stereo not given) , field IC50: 33.5

Record COc1cc2c3c(c4cc(OC)c(OC)cc4c2cc1OC)C(c1ccc(C)cc1)C1=C(CCCC1=O)N3 (stereo not given) , field IC50: 38.9
